Measurement kind: melting point

// worked examples, melting point included
Molecule	melting point
COc1cc(-c2cn3cc(C(F)(F)F)ccc3n2)ccc1OCc1ccccc1 [Example 17]	172 to 173 °C
COc1cc(-c2cn3cccc(O)c3n2)ccc1OCc1ccc(Cl)cc1 [Example 90]	220 to 222 °C
COc1cc(-c2cccc3nccn23)ccc1OCc1ccccc1 [Example 116]	164 to 166 °C
COc1cc(-c2nc3ccccn3c2C)ccc1OCc1ccccc1.Cl	241 to 243 °C
COc1cc(-c2nc3ccccn3c2Br)ccc1OCc1ccccc1 [Example 3]	115 to 117 °C
COc1cc(-c2cn3ccccc3n2)ccc1OCc1ccc(C#N)cc1 [Example 30]	175 to 177 °C

Now take the following molecule into account.
Tell me melting point reported for COc1cc(-c2cn3ccccc3n2)ccc1OCc1ccc([N+](=O)[O-])cc1 [Example 38]
197 to 200 °C

----------
# Lookup of reported melting point keyed by entry

// worked examples, melting point included
Molecule	melting point
COc1cc(-c2cn3ccccc3n2)ccc1OCc1ccc(C(=O)O)cc1	245 to 247 °C
COc1cc(-c2cn3cc(Br)ccc3n2)ccc1OCc1ccc(C#N)cc1	165 to 166 °C
COc1cc(-c2cn3ccccc3n2)ccc1OCc1cc(F)ccc1F	115 to 117 °C
COc1cc(-c2cccc3nccn23)ccc1OCc1ccc(C#N)cc1	155 to 157 °C
COc1cc(-c2nc3ccccn3c2C)ccc1OCc1ccc(Cl)cc1	114 to 115 °C

Tell me melting point reported for "CCOc1cc(-c2cn3ccccc3n2)ccc1OCc1ccc(Cl)cc1"
136 to 137 °C

Tell me melting point reported for "COc1cc(-c2cn3ccccc3n2)ccc1OCc1cccc(F)c1"
117 to 118 °C

----------
Measurement kind: melting point

Molecule	melting point
COc1cc(-c2cn3ccsc3n2)ccc1OCc1ccc(Br)cc1F	109 to 111 °C
Oc1cc(-c2cn3ccccc3n2)ccc1OCc1ccccc1	169 to 171 °C

Tell me melting point reported for "COc1cc(-c2cn3cc(Br)cc(C)c3n2)ccc1OCc1ccccc1"
164 to 165 °C

----------
Measurement kind: melting point

// worked examples, melting point included
Molecule	melting point
COc1cc(-c2cn3ccsc3n2)ccc1OCc1ccc(Br)cc1	134 to 136 °C
c1ccc(COc2ccc(-c3cn4ccccc4n3)cc2OCc2ccccc2)cc1	122 to 124 °C
COc1cc(-c2nc3ccccn3c2C)ccc1OCc1ccc(C)cc1	118 to 120 °C

Tell me melting point reported for "COc1cc(-c2cn3c(C)cccc3n2)ccc1OCc1ccccc1"
130 to 132 °C

Tell me melting point reported for "COc1cc(-c2cn3cc(Br)c(C)c(C)c3n2)ccc1OCc1ccccc1"
158 to 160 °C

Tell me melting point reported for "COc1cc(-c2cn3ccsc3n2)ccc1OCc1ccc(Cl)cc1"
126 to 128 °C

Tell me melting point reported for "COc1cc(-c2cn3ccccc3n2)ccc1OCc1ccc(Cl)c(Cl)c1"
138 to 139 °C

Tell me melting point reported for "COc1cc(-c2cn3cccc(OCc4ccccc4)c3n2)ccc1OCc1ccc(Br)cc1"
168 to 169 °C

Tell me melting point reported for "COc1cc(-c2cn3cc(C)cc(Br)c3n2)ccc1OCc1ccc(Cl)cc1"
136 to 138 °C

----------
- System: human LPL mRNA
- Procedure details: Test for increase in LPL mRNA expression (luciferase assay, HTB-92/p387/p383 cell line)
- Format: cell-based
- Condition details: 120 h, concentration that increases LPL mRNA expression over the control by 50%, HTB-92/p387/p383 cells, 5 days
Measurement kind: EC50 (µM)

A = c1ccc(-c2cc3cc(-c4cn5ccccc5n4)ccc3o2)cc1
B = COc1cc(-c2cn3ccccc3n2)ccc1Oc1ccccc1
Between A and B , which one shows the larger EC50 value? Answer by quoting the chosen item's label.
A
